Target: USP30 (Homo sapiens (Human), UniProt Q70CQ3)
Sequence (Q70CQ3 whole entry): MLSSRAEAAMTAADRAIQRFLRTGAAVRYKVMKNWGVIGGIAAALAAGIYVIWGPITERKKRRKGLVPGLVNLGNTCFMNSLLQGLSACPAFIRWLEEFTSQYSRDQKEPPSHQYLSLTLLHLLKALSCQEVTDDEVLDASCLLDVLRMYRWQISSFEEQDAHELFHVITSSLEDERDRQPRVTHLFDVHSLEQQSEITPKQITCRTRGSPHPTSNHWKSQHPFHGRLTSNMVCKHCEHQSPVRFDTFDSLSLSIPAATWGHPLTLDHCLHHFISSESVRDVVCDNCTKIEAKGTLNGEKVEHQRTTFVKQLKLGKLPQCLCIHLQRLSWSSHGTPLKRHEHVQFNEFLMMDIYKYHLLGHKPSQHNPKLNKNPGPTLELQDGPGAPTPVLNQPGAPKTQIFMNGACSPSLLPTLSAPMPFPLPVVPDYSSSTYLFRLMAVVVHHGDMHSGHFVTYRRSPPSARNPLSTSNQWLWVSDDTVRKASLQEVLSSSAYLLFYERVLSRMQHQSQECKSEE
Test: Dundee MALDI-TOF mass spectrometry assay (IC50)
Assay type: biochemical
Conditions: USP30 25 ng/μl, K48-linked diubiquitin 5.6 μM, avg, read-out: Dundee IC50 μM (avg in vitro MS assay)
measured_property: IC50

Exercise: Find the measured IC50 of O=C(N[C@@H](Cc1ccccc1)C(=O)Nc1cccc2c(S(=O)(=O)NC3COC3)cccc12)c1ccc(F)cc1 and report it.
Key: 0.05 to 1 µM

Exercise: Name the recorded IC50 of the compound listed here: O=C(N[C@@H](Cc1ccccc1)C(=O)Nc1ccc(S(=O)(=O)NC23CC(C2)C3)cc1)c1cccc(F)c1
Key: 0.05 to 1 µM

Exercise: Look up IC50 of CC(C)(C)CS(=N)(=O)c1ccc(NC(=O)[C@H](Cc2ccccc2)NC(=O)c2ccc(F)cc2)cc1 (stereo partly shown) and report it.
Key: > 10 µM

Exercise: Specify reported IC50 for the compound shown: O=C(N[C@@H](Cc1ccccc1)C(=O)Nc1ccc(S(=O)(=O)NC2CCC2)cc1)c1ccc(F)cc1
Key: < 0.05 µM

Exercise: Read the entry O=C(N[C@@H](Cc1ccccc1)C(=O)Nc1ccc(S(=O)(=O)NC2CCCC2)cc1)c1ccc(F)cn1 and write its reported IC50.
Key: 0.05 to 1 µM

Exercise: Identify the reported IC50 for the following entry. CC1(NS(=O)(=O)c2ccc(NC(=O)[C@H](Cc3ccccc3)NC(=O)c3ccc(F)cc3)cn2)COC1
Key: < 0.05 µM

Exercise: Give recorded IC50. CC(C)(C)NS(=O)(=O)c1ccc(NC(=O)[C@H](Cc2ccccc2)NC(=O)c2cccc(F)c2)cc1
Key: < 0.05 µM

----------
Biological target: USP30 (Homo sapiens (Human), UniProt Q70CQ3)
Experiment: Dundee MALDI-TOF mass spectrometry assay (% DUB activity remaining at 1 μM)
Format: biochemical
Settings: % DUB activity remaining at compound concentration of 1 μM; avg; read-out: Dundee % Activity at 1 μM (avg in vitro MS assay)
measured_property: activity at 1 µM

Exercise: Supply reported activity at 1 µM belonging to this compound: CC(C)(C)NS(=O)(=O)c1ccc(NC(=O)C2Cc3cnccc3CN2C(=O)c2ccc(F)cc2)cc1 (stereo not drawn) [Compound I-50]
Key: 50 to 75%

Exercise: For the compound CC(C)(C)NS(=O)(=O)c1ccc(NC(=O)C2Cc3cccnc3N2C(=O)c2ccc(F)cc2)cc1 (stereo not drawn) [Compound I-57] , give its measured activity at 1 µM value.
Key: > 75%

Exercise: Provide one value: measured activity at 1 µM of CC(C)(C)NS(=O)(=O)c1ccc(N2Cc3ccccc3CC(NC(=O)c3ccc(F)cc3)C2=O)cc1 (stereo not drawn) [Compound I-21]
Key: > 75%

Exercise: Could you please provide reported activity at 1 µM for CC(C)(C)NS(=O)(=O)c1ccc(NC(=O)[C@H](Cc2ccccc2)NC(=O)OC2CCOCC2)cc1 [Compound I-43] ? Thanks!
Key: 50 to 75%

Exercise: Provide one value: measured activity at 1 µM of O=C(N[C@@H](Cc1cccnc1)C(=O)Nc1ccc(S(=O)(=O)NC2COC2)cc1)c1ccc(F)cc1 [Compound I-66]
Key: 0 to 25%

Exercise: Write down activity at 1 µM measured for item CN1CC(NS(=O)(=O)c2ccc(NC(=O)[C@H](Cc3ccccc3)NC(=O)c3ccc(F)cc3)cc2)C1 [Compound I-65]
Key: 0 to 25%

Exercise: Fill in reported activity at 1 µM for this entry: CC(C)(C)NS(=O)(=O)c1cccc(NC(=O)[C@H](Cc2ccccc2)NC(=O)c2ccc(F)cc2)c1 [Compound I-68]
Key: > 75%

Exercise: Indicate the recorded activity at 1 µM value for this compound: CC(C)(C)NS(=O)(=O)c1ccc(NC(=O)C2Cc3ccccc3N2C(=O)c2ccc(F)cc2)cc1 (stereo not drawn) [Compound I-53]
Key: > 75%

Exercise: Dear colleague, please send me the reported activity at 1 µM for CC(C)(C)NS(=O)(=O)c1ccc(NC(=O)C2(NC(=O)c3ccc(F)cc3)CC2c2ccccc2)cc1 (racemic) [Compound I-83] when you can.
Key: > 75%

Exercise: Quote activity at 1 µM reported for CC(C)(C)NS(=O)(=O)c1ccc(NC(=O)C2Cc3cnccc3N2C(=O)c2ccc(F)cc2)cc1 (stereo not drawn) [Compound I-55] please.
Key: > 75%

Exercise: Please report the measured activity at 1 µM for CCNS(=O)(=O)c1ccc(NC(=O)[C@H](Cc2ccccc2)N(CC)C(=O)c2ccc(F)cc2)cc1 [Compound I-52]
Key: > 75%

Exercise: Provide one value: measured activity at 1 µM of CC(C)(C)NS(=O)(=O)c1ccc(NC(=O)C2Cc3cccnc3CN2C(=O)c2ccc(F)cc2)cc1 (stereo not drawn) [Compound I-59]
Key: > 75%

Exercise: Indicate the recorded activity at 1 µM value for this compound: CC(C)(C)N=S(C)(=O)c1ccc(NC(=O)[C@H](Cc2ccccc2)NC(=O)c2ccc(F)cc2)cc1 (stereo partly drawn) [Compound I-17]
Key: > 75%

Exercise: Return reported activity at 1 µM. Input compound: CC(C)(C)NS(=O)(=O)c1ccc(NC[C@H](Cc2ccccc2)NC(=O)c2ccc(F)cc2)cc1 [Compound I-44]
Key: > 75%

Exercise: Could you please provide reported activity at 1 µM for CC[C@H](C)NS(=O)(=O)c1ccc(NC(=O)[C@H](Cc2ccccc2)NC(=O)c2ccc(F)cc2)cc1 [Compound I-28] ? Thanks!
Key: 0 to 25%

----------
Kindly supply the reported IC50 values for the records listed here.
Target: recombinant USP30 (amino acids 57-517 of the human sequence) (Homo sapiens (Human), UniProt Q70CQ3)
Sequence (Q70CQ3 57-517): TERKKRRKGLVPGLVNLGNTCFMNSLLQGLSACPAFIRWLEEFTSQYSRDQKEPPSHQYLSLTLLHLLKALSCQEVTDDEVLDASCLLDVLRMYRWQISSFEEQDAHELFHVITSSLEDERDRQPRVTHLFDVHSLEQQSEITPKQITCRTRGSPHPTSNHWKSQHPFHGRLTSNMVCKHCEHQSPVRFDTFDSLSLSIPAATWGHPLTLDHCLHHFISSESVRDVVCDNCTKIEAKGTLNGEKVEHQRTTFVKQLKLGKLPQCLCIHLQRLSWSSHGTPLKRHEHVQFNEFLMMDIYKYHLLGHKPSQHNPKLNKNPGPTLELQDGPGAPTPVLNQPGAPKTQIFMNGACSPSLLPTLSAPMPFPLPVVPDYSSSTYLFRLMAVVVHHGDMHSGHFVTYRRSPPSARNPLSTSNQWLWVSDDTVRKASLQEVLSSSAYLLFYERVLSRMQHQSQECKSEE
Assay: In vitro USP30 biochemical assay (Ubiquitin-Rhodamine)
Details: USP30 IC50 μM (avg), Ubiquitin-Rhodamine substrate 25 nM, 1.5 nM recombinant USP30

Exercise: Fill in reported IC50 for this entry: CN(C(=O)c1ccc(F)cc1)[C@@H](Cc1cccnc1)C(=O)Nc1ccc(S(=O)(=O)NC23CC(C2)C3)cc1
Key: 1 to 10 µM

Exercise: Assign IC50 to the following record: O=C(N[C@@H](Cc1ccccc1)C(=O)Nc1ccc(S(=O)(=O)NC23CC(C2)C3)cc1)c1ccc(F)cc1
Key: 0.05 to 1 µM

Exercise: Fill in reported IC50 for this entry: O=C(N[C@@H](Cc1ccccc1)C(=O)Nc1ccc(S(=O)(=O)NC2COC2)cn1)c1ccc(F)cc1
Key: 0.05 to 1 µM

Exercise: Item COc1cc(NC(=O)[C@H](Cc2ccccc2)NC(=O)c2ccc(F)cc2)ccc1S(=O)(=O)NCCO : provide IC50
Key: 0.05 to 1 µM

Exercise: Read the entry COc1cc(S(=O)(=O)NC23CC(C2)C3)ccc1NC(=O)[C@H](Cc1ccccc1)NC(=O)c1ccc(F)cc1 and write its reported IC50.
Key: 1 to 10 µM

Exercise: Consider the compound O=C(N[C@@H](Cc1ccccc1)C(=O)Nc1ccc(S(=O)(=O)NCCCN2CCOCC2)nc1)c1ccc(F)cc1 and give its recorded IC50.
Key: 0.05 to 1 µM

Exercise: For the compound O=C(N[C@@H](Cc1ccccc1)C(=O)Nc1ccc(S(=O)(=O)N[C@@H]2CCOC2)nc1)c1ccc(F)cc1 , give its measured IC50 value.
Key: 0.05 to 1 µM

Exercise: Determine from records and report IC50 for O=C(N[C@@H](Cc1ccccn1)C(=O)Nc1ccc(S(=O)(=O)NC2CCC2)cc1)c1ccc(F)cc1
Key: 0.05 to 1 µM

Exercise: Please list IC50 recorded for the compound O=C(N[C@@H](Cc1ccccc1)C(=O)Nc1ccc(S(=O)(=O)NCCN2CCOCC2)nc1)c1ccc(F)cc1
Key: 0.05 to 1 µM

Exercise: Give a short answer stating reported IC50 for COc1cc(NC(=O)[C@H](Cc2ccccc2)NC(=O)c2ccc(F)cc2)ccc1S(=O)(=O)NC(C)(C)CN1CCOCC1 .
Key: 0.05 to 1 µM

Exercise: Recall and state the measured IC50 for C#CC(C)(C)NS(=O)(=O)c1ccc(NC(=O)[C@H](Cc2ccccc2)NC(=O)c2ccc(F)cc2)cn1 .
Key: 0.05 to 1 µM

Exercise: Name the recorded IC50 of the item O=C(N[C@@H](Cc1ccccc1)C(=O)Nc1ccc(S(=O)(=O)NC2COC2)cc1)c1ccc(F)cc1 in your answer.
Key: 0.05 to 1 µM

Exercise: // Input: CCNS(=O)(=O)c1cccc2c(NC(=O)[C@H](Cc3ccccc3)NC(=O)C3CCCCC3)cccc12 . Output its IC50 only.
Key: 0.05 to 1 µM

Exercise: Read off the recorded IC50 for COCC(C)(C)NS(=O)(=O)c1ccc(NC(=O)[C@H](Cc2ccccc2)N(C)C(=O)c2ccc(F)cc2)cc1OC
Key: 1 to 10 µM

----------
Target: USP30 (Homo sapiens (Human), UniProt Q70CQ3)
Test: Dundee MALDI-TOF mass spectrometry assay (IC50)
Type: biochemical
Settings: USP30 25 ng/μl, K48-linked diubiquitin 5.6 μM, avg, read-out: Dundee IC50 μM (avg in vitro MS assay)
Would you kindly list IC50 for each of these molecules?

Exercise: Param request: IC50 | system USP30 (Homo sapiens (Human), UniProt Q70CQ3) | item CC(C)(C)NS(=O)(=O)c1ccc(NC[C@H](Cc2ccccc2)NC(=O)c2ccc(F)cc2)cc1
Key: > 1 µM

Exercise: Specify the recorded IC50 for COc1cc(NC(=O)[C@H](Cc2ccccc2)NC(=O)c2ccc(F)cc2)ccc1S(=O)(=O)NC12CC(C1)C2 , system: USP30 (Homo sapiens (Human), UniProt Q70CQ3).
Key: < 0.05 µM

Exercise: Specify the recorded IC50 for O=C(N[C@@H](Cc1ccccc1)C(=O)Nc1ccc(S(=O)(=O)NC23CC(C2)C3)cn1)c1ccc(F)cc1 , system: USP30 (Homo sapiens (Human), UniProt Q70CQ3).
Key: 0.05 to 1 µM

Exercise: Give USP30 (Homo sapiens (Human), UniProt Q70CQ3) IC50 for the following molecule: Cc1cc(S(=O)(=O)NC(C)(C)C)ccc1NC(=O)[C@H](Cc1ccccc1)NC(=O)c1ccc(F)cc1
Key: 0.05 to 1 µM

Exercise: Identify measured IC50 obtained with USP30 (Homo sapiens (Human), UniProt Q70CQ3) for CN(C(=O)c1ccc(F)cc1)[C@@H](Cc1cccnc1)C(=O)Nc1ccc(S(=O)(=O)NC23CC(C2)C3)cc1 .
Key: 1 to 10 µM

Exercise: Find IC50 for CC(C)(C)NS(=O)(=O)c1ccc(NC(=O)C2(NC(=O)c3ccc(F)cc3)Cc3ccccc3C2)cc1 on USP30 (Homo sapiens (Human), UniProt Q70CQ3) and write it down.
Key: 0.05 to 1 µM

Exercise: Look up and report IC50, with USP30 (Homo sapiens (Human), UniProt Q70CQ3) as system, for O=C(N[C@@H](Cc1ccccc1)C(=O)Nc1ccc(S(=O)(=O)NC2CCCC2)cc1)c1ccccn1
Key: 0.05 to 1 µM

Exercise: Find the measured IC50 of CN(C(=O)c1ccc(F)cc1)[C@@H](Cc1ccccc1)C(=O)Nc1ccc(S(=O)(=O)NC23CC(C2)C3)cc1 with USP30 (Homo sapiens (Human), UniProt Q70CQ3) as test system.
Key: 1 to 10 µM

Exercise: Under USP30 (Homo sapiens (Human), UniProt Q70CQ3): report IC50 of CC(C)(C)NS(=O)(=O)c1ccc(NC(=O)C2Cc3ncccc3N2C(=O)c2ccc(F)cc2)cc1 (centres unmarked) .
Key: > 1 µM

Exercise: Tell me IC50 of CC(C)(CO)NS(=O)(=O)c1ccc(NC(=O)[C@H](Cc2ccccc2)NC(=O)c2ccc(F)cc2)cc1 when tested on USP30 (Homo sapiens (Human), UniProt Q70CQ3).
Key: < 0.05 µM

Exercise: Answer briefly: IC50 recorded on USP30 (Homo sapiens (Human), UniProt Q70CQ3) for CC1(NS(=O)(=O)c2ccc(NC(=O)[C@H](Cc3ccccc3)NC(=O)c3ccc(F)cc3)cc2)COC1
Key: < 0.05 µM

Exercise: Retrieve IC50 on USP30 (Homo sapiens (Human), UniProt Q70CQ3); query CC(C)(C)OCCNS(=O)(=O)c1ccc(NC(=O)[C@H](Cc2ccccc2)NC(=O)c2ccc(F)cc2)cn1
Key: 0.05 to 1 µM

Exercise: Send back USP30 (Homo sapiens (Human), UniProt Q70CQ3) IC50 of CN(C(=O)c1ccc(F)cc1)[C@@H](Cc1ccccc1)C(=O)Nc1ccc(S(=O)(=O)NC(C)(C)C)cc1 only.
Key: 0.05 to 1 µM

Exercise: Given O=C(N[C@@H](Cc1ccccc1)C(=O)Nc1ccc(S(=O)(=O)NC23CC(C2)C3)nc1)c1ccc(F)cc1 , report its IC50 on USP30 (Homo sapiens (Human), UniProt Q70CQ3).
Key: < 0.05 µM
